Test system: DU-145 prostate
procedure.summary: NCI-60 one-dose screen, 48 h
setup.conditions: 10 µM unless noted
About 83,000 compounds went through this panel and 20% of them were active in at least one assay; those are over-represented in the sample as a whole. Activity calls are given as the source filed them. Rule for the calls: active = growth percent below 10; inactive = the rest.
The reply should name one outcome from active, inactive

# example entries with known answers
C=CC(=O)N1CC2(CCC(n3nc(-c4ccc(Oc5ccccc5)cc4)c4c(N)ncnc43)CC2)C1 ... active
COc1ccc(/C=N\N2CCOCC2)cc1OC1CCCC1 ... inactive
O=c1oc2ccccc2cc1-c1csc(N=Nc2c(O)[nH]c3ccc(Cl)cc23)n1 ... inactive
Clc1ccccc1Nc1ccc2nnc(-c3ccncc3)n2n1 ... inactive

Please indicate how the test categorized Cc1nc2cc(Nc3nc(N4CCCCC4)nc(N4CCOCC4)n3)ccc2n1Cc1ccccc1 .
active

Short answer needed: outcome of this test for COc1ccccc1CNCCCCCCCCCCCCN1C(=O)c2ccc3c4c(ccc(c24)C1=O)C(=O)N(CCCCCCCCCCCCNCc1ccccc1OC)C3=O ?
inactive

---

Test system: MDA-MB-231 breast
procedure.summary: NCI-60 one-dose screen, 48 h
setup.conditions: 10 µM unless noted
About 83,000 compounds went through this panel and 20% of them were active in at least one assay; those are over-represented in the sample as a whole. Calls of active or inactive are those of the source. Rule for the calls: active = growth percent below 10; inactive = the rest.
The categories you may choose from are yes (1) = active, no (0) = inactive

Solved entries:
O=C(c1ccccc1)C(Br)C(Br)c1cccc([N+](=O)[O-])c1 (stereo unspecified) ... no (0)
Cc1ccccc1-n1nnc(C(=O)Nc2ccc(-c3ccccc3)cn2)c1C ... no (0)
COc1ccc(-c2nn(-c3ccc(NC(=O)c4ccc(Cl)c(Cl)c4)cc3)cc2-c2ccncc2)cc1Cl ... yes (1)

Given Oc1ccc(Cl)cc1CNc1nc2ccccc2[nH]1 , state the outcome it received in this test.
yes (1)

Per the records of this test, what outcome belongs to CSC1=CC(=O)c2ccccc2C1=O ?
yes (1)

Hello, I am checking results. What call was entered for Cc1c(C(=O)Nc2nc(-c3ccccc3)cs2)nnn1-c1ccccc1Br ?
no (0)

---

Tested on: MDA-MB-231 breast
procedure.summary: NCI-60 one-dose screen, 48 h
setup.conditions: 10 µM unless noted
About 83,000 compounds went through this panel and 20% of them were active in at least one assay; those are over-represented in the sample as a whole. The source made the active and inactive calls. Rule for the calls: active = growth percent below 10; inactive = the rest.
Form entry, call: pick from active, inactive

Recorded results for 2 compounds are shown here.
COc1cc(CNCCCN2C(=O)c3ccc4c5c(ccc(c35)C2=O)C(=O)N(CCCNCc2cc(OC)c(OC)c(OC)c2)C4=O)cc(OC)c1OC ... active
C[C@@H](Oc1cc(-c2cnn(C3CC4(CNC4)C3)c2)cnc1N)c1c(Cl)ccc(F)c1Cl ... inactive

In this assay, the call recorded for O=[N+]([O-])c1ccc(O)c2ncccc12 was what?
inactive

Entry CNc1ccc(Br)cc1-c1n[nH]c(=O)[nH]c1=O : call = ?
inactive

In this assay, the call recorded for O=c1c2cc(F)ccc2oc2c(NCCNCCO)nc3ccccc3c12 was what?
inactive

Identify the outcome logged in this assay for the compound shown: CC1SC(c2cccc(Oc3ccccc3)c2)N(CCc2cccs2)C1=O (stereo not given)
active

Recorded test outcome, item CSc1ccc(OC(C)=O)cc1C
inactive

---

Test system: SNB-75 CNS
procedure.summary: NCI-60 one-dose screen, 48 h (100 = growth as untreated, 0 = no growth, -100 = all killed)
setup.conditions: 10 µM unless noted
This is part of a sample that, as a whole, favours compounds with a hit. Of some 83,000 tested, about 20% had one in any assay.
The threshold is 70%. Values of growth beneath it are tagged class 1; values meeting or exceeding it are tagged class 0.

A selection of reference data follows.
Clc1ccc(Nc2nc(Nc3ccccc3)nc(Nc3ccc(-c4cc(-c5ccc(Cl)cc5)on4)cc3)n2)cc1 ... class 1
COc1ccc(/C=N/OCC(O)CN2CCC(O)CC2)cc1OC1CCCC1 (configuration not stated) ... class 0
O=c1[nH]c(=S)c2c(n1CCCO)CCC2 ... class 0
CCCC1=NNC(=O)C1 ... class 0
O=S(=O)(Nc1ccc(Cl)c(Cl)c1)c1ccc(-c2cnc(C3CC3)o2)cc1 ... class 1

Does this compound meet the criterion growth < 70%? Nc1c(Br)cc(Br)cc1-c1n[nH]c(=O)[nH]c1=O
class 0

I wonder whether COc1ccc(OC)c(/C=C2\Oc3cc(O)ccc3C2=O)c1 has growth below 70%. Can you tell?
class 0

Please state whether growth is below 70% for COc1cc2nc(SCc3cc(OC)c(OC)c(OC)c3)n(-c3ccccc3OC)c(=O)c2cc1OC
class 1

For c1ccc(-c2n(Cc3ccc4ccccc4n3)c3ccccc3[n+]2Cc2ccc3ccccc3n2)cc1 , is the recorded growth below the cut-off of 70%?
class 1

Does this compound meet the criterion growth < 70%? Cc1cc(=O)oc2c1ccc1oc(C(=O)c3ccccc3)c(C)c12
class 0

Hi there! Is growth for ONc1nc(NO)c2[nH]cnc2n1 below 70%, do you know?
class 0

Does the reported growth of the following compound sit strictly below 70%? O=C1/C(=C/c2ccc(Oc3ccccc3)cc2)N=C(c2ccccc2)N1CCc1cccs1
class 1
